# study.target: T1, T cell receptor (TCR) Vγ9 (TRGV9) (human, UniProt Q99603 21-122)
# T1 chain (looked up): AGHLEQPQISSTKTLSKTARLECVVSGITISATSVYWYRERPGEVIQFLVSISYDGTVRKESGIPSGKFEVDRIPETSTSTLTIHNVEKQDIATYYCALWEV
# run.description: cell-based or functional assay
property.label: Vg9 T cell %, flow staining (%)
API: value field is a number in %; no unit string.

Specify reported Vg9 T cell %, flow staining for the binder shown: VG9B104 (antibody, human IgG1, kappa, V domains shown) VH: EVQLVESGGGLVKPGGSLRLSCAASGFTFSVYSMNWVRQAPGKGLEWVSSIGSSSSYIFYADSVKGRFTISRDNAKNSLYLQMNSLRAEDTAVYYCGRDHDYGGLDYWGQGTLVTVSS VL: EIVLTQSPGTLSLSPGERATLSCRASQSVSSSYLAWYQQKPGQAPRLLIYGPSNRATDIPDRFSGTGSGTDFTLTISRLEPEDFAVYYCQQYGRSPLTFGGGTKVEIKR
5.1
